system: Rat NSCs; assay: NG2 immunocytochemistry cell count: differentiation of NSCs to NG2 positive cells (OPCs); type: cell-based; conditions: Dose 10 μM; NSC neurospheres; mean±S.D.
Could you please report measured The ratio of NG2 positive cells of the total cells (%) for the items listed next?
Answers are plain numbers, in %.

Consider the worked cases shown below.
>>> endpointresult("COc1cc2oc(=O)cc(-c3ccccc3)c2cc1O [Dalbergin]")
1
>>> endpointresult("COc1cc2cc(Oc3ccc4ccc(=O)oc4c3)c(=O)oc2cc1OC [Isodaphnoretin]")
1

Provide The ratio of NG2 positive cells of the total cells (%) for all items below, preserving their order.
1. O=c1ccc2cc(O)c(O)cc2o1 [Aesculetin]
2. COc1cc2cc(Oc3ccc4ccc(=O)oc4c3)c(=O)oc2cc1O[C@@H]1O[C@H](CO)[C@@H](O)[C@H](O)[C@H]1O [Daphnoretin-7-O-β-D-glucopyranoside]
3. O=c1ccc2ccc(O)cc2o1 [7-hydroxycoumarin]
4. COc1ccc2ccc(=O)oc2c1 [7-methoxy coumarin]
5. C[C@@H]1O[C@@H](Oc2ccc3ccc(=O)oc3c2-c2c(O)ccc3ccc(=O)oc23)[C@H](O)[C@H](O)[C@H]1O [Edgeworoside C]

[out]
1. 63
2. 1
3. 76
4. 1
5. 1

Provide The ratio of NG2 positive cells of the total cells (%) for all items below, preserving their order.
1. COc1cc2ccc(=O)oc2cc1O [Scopoletin]
2. O=c1ccc2cc(O[C@@H]3O[C@H](CO)[C@@H](O)[C@H](O)[C@H]3O)c(O)cc2o1 [Esculetin-6-β-D-glucopyranoside]
3. COc1cc(O)c2c(=O)cc(-c3ccc(O)cc3)oc2c1 [Genkwanin]

[out]
1. 63
2. 72
3. 1

Provide The ratio of NG2 positive cells of the total cells (%) for all items below, preserving their order.
1. COc1cc2cc(Oc3ccc4ccc(=O)oc4c3)c(=O)oc2cc1O [Daphnoretin]
2. O=c1ccc2ccc(Oc3cc4ccc(O)cc4oc3=O)cc2o1 [Edgeworin]

[out]
1: 87; 2: 63
